Target: T1, human galectin-10-His (human)
T1 construct: The last M of the tag may be Met1 of galectin-10; also called humanGal10-His; hGal10
T1 chain: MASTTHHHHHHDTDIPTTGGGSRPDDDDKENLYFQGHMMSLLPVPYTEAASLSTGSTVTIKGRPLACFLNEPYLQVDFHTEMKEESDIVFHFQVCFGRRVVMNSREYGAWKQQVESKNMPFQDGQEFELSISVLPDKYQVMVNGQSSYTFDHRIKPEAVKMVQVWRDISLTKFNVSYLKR
Test: ELISA, coated antigen 0.2 ug/mL

{"binder": "11F12 scFv-human Fc (Fc fusion, also called 011F12; not shown: CH2-CH3 constant domains of human IgG1 (pUPEX50 scFv-Fc fusion vector)) scFv: QVQLQESGGGLVQPGGSLRLSCAASGFTFSTNYMNWVRQAPGKGLEWVSGITSGGGRTYYADSVKGRFTISRDNAKNTLYLQMNSLKPEDTALYYCARTDHAWLDAWGQGTLVTVSSGGGGSGGGGSGGGGSHSAVTQPPSVSGTLGKTVTISCAGTSSDVGYGNYVSWYQHLPGTAPKLLIYAVSTRASGVPDRFSGSKSGNTASLTISGLQSEDEGDYYCASYSVRNNVVFGGGTRLTVL", "EC50 / pM": 560}
{"binder": "8H11 scFv-human Fc (Fc fusion, also called 008H11; not shown: CH2-CH3 constant domains of human IgG1 (pUPEX50 scFv-Fc fusion vector)) scFv: ELQLVESGGGLVQPGGSLRLSCAASGFTFSTNYMNWVRQAPGKGLEWVSGITSGGGRTYYADSVKGRFTISRDNAKNTLYLQMNSLKPEDTALYYCARTDHAWLDAWGQGTLVTVSSGGGGSGGGGSGGGGSQAGLTQPPSVSGTLGKTVTISCAGTSSDVGYGNYVSWYQQLPGTAPKLLIYAVSTRASGIPDRFSGSKSGNTASLTISGLLSEDEADYYCASYRSSNNYVFGGGTKLTVL", "EC50 / pM": 180}
